TARGET OF ASSAY: T7 RNA polymerase (Escherichia phage T7, UniProt P00573)
Sequence (P00573 whole entry): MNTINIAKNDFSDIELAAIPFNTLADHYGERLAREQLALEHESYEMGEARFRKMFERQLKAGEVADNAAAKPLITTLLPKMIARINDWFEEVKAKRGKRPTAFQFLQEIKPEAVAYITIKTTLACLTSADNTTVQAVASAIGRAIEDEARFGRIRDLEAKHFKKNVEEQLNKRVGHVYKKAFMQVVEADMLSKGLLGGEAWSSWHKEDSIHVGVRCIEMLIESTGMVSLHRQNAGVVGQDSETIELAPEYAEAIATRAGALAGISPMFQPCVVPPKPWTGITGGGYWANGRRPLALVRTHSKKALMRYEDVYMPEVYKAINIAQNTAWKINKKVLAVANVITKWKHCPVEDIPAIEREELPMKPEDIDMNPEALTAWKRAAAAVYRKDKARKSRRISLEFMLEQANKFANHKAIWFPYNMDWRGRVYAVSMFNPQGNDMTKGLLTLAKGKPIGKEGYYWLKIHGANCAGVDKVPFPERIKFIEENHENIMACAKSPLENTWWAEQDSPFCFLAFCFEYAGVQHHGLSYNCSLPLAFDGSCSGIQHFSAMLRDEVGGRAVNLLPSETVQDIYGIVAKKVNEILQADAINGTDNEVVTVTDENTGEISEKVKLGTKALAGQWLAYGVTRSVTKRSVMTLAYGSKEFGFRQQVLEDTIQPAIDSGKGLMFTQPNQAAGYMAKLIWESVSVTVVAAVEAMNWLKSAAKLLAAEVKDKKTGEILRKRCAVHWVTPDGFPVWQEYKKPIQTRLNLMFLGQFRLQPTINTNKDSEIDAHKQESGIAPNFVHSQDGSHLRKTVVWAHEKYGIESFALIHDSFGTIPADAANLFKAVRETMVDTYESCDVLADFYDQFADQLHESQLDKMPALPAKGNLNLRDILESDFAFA
ASSAY METHOD TEXT: In vitro transcription yields of modified mRNA
Format: biochemical
TEST CONDITIONS: Luciferase mRNA made with the modified NTP(s)
Classify by Luc In Vitro Transcription yield. Ranges: L = under 0.2 mg, M = from 0.2 mg up to 0.5 mg, H = 0.5 mg and over

>>> assigned_category("CNc1ccn([C@@H]2O[C@H](COP(=O)(O)OP(=O)(O)OP(=O)(O)O)C(O)C2O)c(=O)n1 (stereo in doubt)")
"H"
>>> assigned_category("O=c1[nH]c(=S)[nH]cc1[C@@H]1O[C@H](COP(=O)(O)OP(=O)(O)OP(=O)(O)O)C(O)C1O (stereo in doubt)")
"H"
>>> assigned_category("Nc1ccn([C@@H]2O[C@H](COP(O)(=S)OP(=O)(O)OP(=O)(O)O)C(O)C2O)c(=O)n1 (stereo in doubt)")
"M"
>>> assigned_category("Nc1nc(N)c2ncn([C@@H]3O[C@H](COP(=O)(O)OP(=O)(O)OP(=O)(O)O)C(O)C3O)c2n1 (stereo partly drawn)")
"L"
>>> assigned_category("Cn1c(=O)[nH]cc([C@@H]2O[C@H](COP(=O)(O)OP(=O)(O)OP(=O)(O)O)C(O)C2O)c1=O (stereo partly drawn)")
"L"
>>> assigned_category("O=c1[nH]c(=S)ccn1[C@@H]1O[C@H](COP(=O)(O)OP(=O)(O)OP(=O)(O)O)C(O)C1O (stereo partly drawn)")
"L"
>>> assigned_category("CC(=O)Nc1ccn([C@@H]2O[C@H](COP(=O)(O)OP(=O)(O)OP(=O)(O)O)C(O)C2O)c(=O)n1 (stereo in doubt)")
"M"
>>> assigned_category("O=c1[nH]c(=O)n(CC(F)(F)F)cc1[C@@H]1O[C@H](COP(=O)(O)OP(=O)(O)OP(=O)(O)O)C(O)C1O (stereo partly drawn)")
"M"
